Origin of measurements: the RNAGym collection of RNA variant scans (doi:10.1073/pnas.2313332121)

B1: TPR 5TU (parent)
chain: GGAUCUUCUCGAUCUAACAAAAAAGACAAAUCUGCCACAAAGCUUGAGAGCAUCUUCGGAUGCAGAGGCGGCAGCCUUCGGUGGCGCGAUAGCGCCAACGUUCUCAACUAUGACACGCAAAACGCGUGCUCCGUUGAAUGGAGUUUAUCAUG

- Variants of: B1
- Protocol Summary: polymerase ribozyme fitness, log enrichment relative to wild type (log ratio); higher = more active; in vitro selection for triplet polymerase activity
Fewer inactive variants are shown than the library holds.
Measured polymerase ribozyme fitness (log ratio), listed per entry.

Lookup: Provide measured polymerase ribozyme fitness (log ratio) value, entry: G62A U130G
Found: -3.67
